- Assay Comment: Solubility in H2O
- Run Parameters: water
Measure: solubility (mg/mL)
# number only, unit mg/mL dropped from output

Answer with the recorded solubility for the compound listed here: O=C(/C=C/c1ccoc1)N[C@@H]1CC[C@@]2(O)[C@H]3Cc4ccc(O)c5c4[C@@]2(CCN3CC2CC2)[C@H]1O5.O=C(O)C(=O)O (relative stereo) [Compound 19b.Oxalate]
24

Supply measured solubility of CN(C(=O)/C=C/c1ccoc1)[C@@H]1CC[C@@]2(O)[C@H]3Cc4ccc(O)c5c4[C@@]2(CCN3CC2CC2)[C@H]1O5.O=C(O)C(=O)O (relative stereo) [Compound 20b-oxalate] in your reply.
32

Return the recorded solubility value; entry: CN(C(=O)/C=C/c1ccoc1)[C@H]1CC[C@@]2(O)[C@H]3Cc4ccc(O)c5c4[C@@]2(CCN3CC2CC2)[C@H]1O5.O=C(O)C(=O)O (relative stereo) [20a—Oxalate]
16

###

- Study System: δ-opioid receptor (Homo sapiens)
- Construct: expressed in transfected cells; host or cells: CHO cells
- Sequence (P41143 whole entry): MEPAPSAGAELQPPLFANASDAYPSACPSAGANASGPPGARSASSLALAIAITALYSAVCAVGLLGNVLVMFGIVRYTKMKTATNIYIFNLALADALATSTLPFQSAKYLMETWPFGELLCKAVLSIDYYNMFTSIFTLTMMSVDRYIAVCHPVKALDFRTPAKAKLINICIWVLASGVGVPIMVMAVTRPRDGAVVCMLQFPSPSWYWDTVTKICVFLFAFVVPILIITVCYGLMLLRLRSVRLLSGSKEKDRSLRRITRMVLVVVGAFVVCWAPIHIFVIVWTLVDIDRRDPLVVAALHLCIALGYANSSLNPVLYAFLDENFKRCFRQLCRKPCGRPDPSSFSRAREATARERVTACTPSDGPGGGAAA
- Assay Comment: biochemical
- Format: binding
- Run Parameters: Ki (nM) ± SEM, δ, Table 1b, N-oxides
Measure: Ki
# do not omit the unit; it follows the number

State, in one line, measured Ki of O=C(NC1CCC2(O)C3Cc4ccc(O)c5c4C2(CC[N+]3([O-])CC2CC2)C1O5)c1ccc(C(F)(F)F)c(F)c1 (stereo not drawn)
352 nM

Quickly give me recorded Ki for CN(C(=O)/C=C/c1ccoc1)[C@@H]1CC[C@@]2(O)[C@H]3Cc4ccc(O)c5c4[C@@]2(CC[N+]3([O-])CC2CC2)[C@H]1O5 (relative stereo)
2510 nM

Identify the reported Ki for the following entry. COc1cccc(C(=O)N[C@@H]2CC[C@@]3(O)[C@H]4Cc5ccc(O)c6c5[C@@]3(CC[N+]4([O-])CC3CC3)[C@H]2O6)c1 (stereo partly drawn) [Compound 42]
1050 nM

Report Ki for Cc1ccc(C(=O)N[C@@H]2CC[C@@]3(O)[C@H]4Cc5ccc(O)c6c5[C@@]3(CC[N+]4([O-])CC3CC3)[C@H]2O6)cc1 (stereo partly drawn)
342 nM

Return Ki for the following molecule: O=C(N[C@@H]1CC[C@@]2(O)[C@H]3Cc4ccc(O)c5c4[C@@]2(CC[N+]3([O-])CC2CC2)[C@H]1O5)c1cccc(O)c1 (stereo partly drawn)
1170 nM

Please look at this molecule and report its Ki: O=C(NC1CCC2(O)C3Cc4ccc(O)c5c4C2(CC[N+]3([O-])CC2CC2)C1O5)c1ccc(Cl)c(F)c1 (stereo not drawn)
390 nM

###

- Study System: κ-opioid receptor (Homo sapiens)
- Construct: expressed in transfected cells; host or cells: CHO cells
- Assay Comment: biochemical
- Format: binding
- Run Parameters: read-out: Ki (nM) ± SEM, κ
Exam item: assign condition met to entries whose Ki is below 6 nM and condition not met to entries at or above 6 nM. Note that a value of exactly 6 nM receives condition not met.

Is the reported Ki for CN(C(=O)c1ccc(Br)cc1)[C@H]1CC[C@@]2(O)[C@H]3Cc4ccc(O)c5c4[C@@]2(CC[N+]3([O-])CC2CC2)[C@H]1O5 (stereo partly drawn) strictly below 6 nM?
condition met

For O=C(N[C@H]1CC[C@@]2(O)[C@H]3Cc4ccc(O)c5c4[C@@]2(CC[N+]3([O-])CC2CC2)[C@H]1O5)c1ccccc1 (stereo partly drawn) , is the recorded Ki below the cut-off of 6 nM?
condition not met

Just wondering, is Ki of COC(=O)c1ccc(C(=O)N[C@@H]2CC[C@@]3(O)[C@H]4Cc5ccc(O)c6c5[C@@]3(CC[N+]4([O-])CC3CC3)[C@H]2O6)cc1 (stereo partly drawn) below 6 nM?
condition not met

Input O=C(NC1CCC2(O)C3Cc4ccc(O)c5c4C2(CC[N+]3([O-])CC2CC2)C1O5)c1ccc(C(F)(F)F)c(F)c1 (stereo not drawn) ; condition: Ki strictly below 6 nM. Does it hold?
condition met

Does the reported Ki of the following molecule sit strictly below 6 nM? COc1ccc(C(=O)N[C@H]2CC[C@@]3(O)[C@H]4Cc5ccc(O)c6c5[C@@]3(CC[N+]4([O-])CC3CC3)[C@H]2O6)cc1OC (stereo partly drawn)
condition not met

###

- Study System: κ-opioid receptor (Homo sapiens, UniProt P41145)
- Construct: expressed in transfected cells; host or cells: CHO cells
- Sequence (P41145 whole entry): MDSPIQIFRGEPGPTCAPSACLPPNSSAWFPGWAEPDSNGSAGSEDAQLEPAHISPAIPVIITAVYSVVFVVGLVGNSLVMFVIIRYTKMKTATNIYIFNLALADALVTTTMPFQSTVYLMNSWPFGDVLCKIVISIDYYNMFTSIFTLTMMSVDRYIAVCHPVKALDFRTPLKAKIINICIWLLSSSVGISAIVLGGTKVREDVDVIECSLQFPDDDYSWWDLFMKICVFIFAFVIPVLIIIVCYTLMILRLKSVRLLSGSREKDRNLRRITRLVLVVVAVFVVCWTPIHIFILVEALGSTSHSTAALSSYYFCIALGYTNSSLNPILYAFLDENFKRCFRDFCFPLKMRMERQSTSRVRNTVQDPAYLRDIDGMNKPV
- Assay Comment: biochemical
- Type: binding
- Run Parameters: Table 1b, N-oxides; read-out: Ki (nM) ± SEM, κ
Measure: Ki (nM)
Enter your answer as a number in nM; do not include the unit.

Provide Ki, recorded with κ-opioid receptor (Homo sapiens, UniProt P41145), of CN(C(=O)c1ccc(C(C)(C)C)cc1)[C@@H]1CC[C@@]2(O)[C@H]3Cc4ccc(O)c5c4[C@@]2(CC[N+]3([O-])CC2CC2)[C@H]1O5 (some centres unmarked) [Compound 27]
72

Answer with Ki of O=C(Cc1cccs1)N[C@@H]1CC[C@@]2(O)[C@H]3Cc4ccc(O)c5c4[C@@]2(CC[N+]3([O-])CC2CC2)[C@H]1O5 (some centres unmarked) [Compound 25] measured for κ-opioid receptor (Homo sapiens, UniProt P41145).
13

Supply Ki measured with κ-opioid receptor (Homo sapiens, UniProt P41145) for CN(C)c1ccc(C(=O)N[C@@H]2CC[C@@]3(O)[C@H]4Cc5ccc(O)c6c5[C@@]3(CC[N+]4([O-])CC3CC3)[C@H]2O6)cc1 (some centres unmarked) [Compound 24] .
227

With κ-opioid receptor (Homo sapiens, UniProt P41145) as the test system, provide measured Ki for this compound: CN(C(=O)c1ccc(C(C)(C)C)cc1)[C@H]1CC[C@@]2(O)[C@H]3Cc4ccc(O)c5c4[C@@]2(CC[N+]3([O-])CC2CC2)[C@H]1O5 (some centres unmarked) [Compound 48]
14

Tell me its Ki on κ-opioid receptor (Homo sapiens, UniProt P41145): CN(C(=O)c1ccc(Cl)cc1)[C@H]1CC[C@@]2(O)[C@H]3Cc4ccc(O)c5c4[C@@]2(CC[N+]3([O-])CC2CC2)[C@H]1O5 (some centres unmarked) [Compound 50]
77

###

- Assay Comment: Metabolic stability, mouse liver microsomes
- Run Parameters: mouse, microsomes, pH 7.4
Measure: half-life at 40 μM

For the molecule C=C1CC[C@@]2(O)[C@H]3Cc4ccc(O)c5c4[C@@]2(CCN3CC2CC2)[C@H]1O5 [Compound 1b, nalmefene, reference compound] , report half-life at 40 μM.
0.333 h

Look up and state reported half-life at 40 μM for `O=C(N[C@@H]1CC[C@@]2(O)[C@H]3Cc4ccc(O)c5c4[C@@]2(CCN3CC2CC2)[C@H]1O5)c1ccc(Br)cc1`
> 1.87 h

Using the record for `CC(C)(C)c1ccc(C(=O)N[C@@H]2CC[C@@]3(O)[C@H]4Cc5ccc(O)c6c5[C@@]3(CCN4CC3CC3)[C@H]2O6)cc1` , state its measured half-life at 40 μM.
> 1.87 h

###

Record form. Attribute: melting point. Fill in for each entry.
Reply with just the number (in °C).

Answer with reported melting point of `Cc1ccc(C(=O)N[C@@H]2CC[C@@]3(O)[C@H]4Cc5ccc(O)c6c5[C@@]3(CCN4CC3CC3)[C@H]2O6)cc1`
207.6

State, in one line, measured melting point of `O=C(N[C@@H]1CC[C@@]2(O)[C@H]3Cc4ccc(O)c5c4[C@@]2(CCN3CC2CC2)[C@H]1O5)c1ccc(Cl)cc1`
188.8

# return recorded melting point for input `CC(C)(C)c1ccc(C(=O)N[C@@H]2CC[C@@]3(O)[C@H]4Cc5ccc(O)c6c5[C@@]3(CCN4CC3CC3)[C@H]2O6)cc1`
151.1

Quote melting point reported for `O=C(N[C@@H]1CC[C@@]2(O)[C@H]3Cc4ccc(O)c5c4[C@@]2(CCN3CC2CC2)[C@H]1O5)c1ccc(C(F)(F)F)cc1` please.
157.5

###

- Study System: NOP (nociceptin) receptor (Homo sapiens)
- Sequence (P41146 whole entry): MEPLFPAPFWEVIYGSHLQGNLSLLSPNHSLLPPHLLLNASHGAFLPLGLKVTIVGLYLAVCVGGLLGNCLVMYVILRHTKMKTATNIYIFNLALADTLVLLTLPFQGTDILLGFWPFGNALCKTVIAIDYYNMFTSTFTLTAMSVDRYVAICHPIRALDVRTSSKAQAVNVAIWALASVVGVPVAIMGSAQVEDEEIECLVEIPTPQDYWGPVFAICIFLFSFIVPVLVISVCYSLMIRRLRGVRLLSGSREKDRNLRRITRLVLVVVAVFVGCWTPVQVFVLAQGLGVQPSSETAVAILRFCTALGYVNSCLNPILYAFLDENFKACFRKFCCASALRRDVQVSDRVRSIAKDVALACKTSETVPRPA
- Assay Comment: Stimulation of [35S]GTPγS binding (agonist activity), NOP
- Run Parameters: read-out: EC50, NOP, stimulation of [35S]GTPγS binding; cells printed in μM
Measure: EC50

Give reported EC50 value for O=C(N[C@@H]1CC[C@@]2(O)[C@H]3Cc4ccc(O)c5c4[C@@]2(CCN3CC2CC2)[C@H]1O5)c1ccc(Cl)c(Cl)c1 [Compound 9]
> 10 µM

###

- Study System: UniProt P41146
- Assay Comment: Inhibition of basal [35S]GTPγS binding (inverse agonism), NOP
- Type: biochemical
- Set-up: FLAG; expressed in transfected cells
Measure: EC50 (nM)
Answer with a number only, understood to be in nM.

Please give the documented EC50 of `O=C(N[C@@H]1CC[C@@]2(O)[C@H]3Cc4ccc(O)c5c4[C@@]2(CCN3CC2CC2)[C@H]1O5)c1ccc(Cl)c(Cl)c1`
0.1

Respond only with EC50 recorded for `O=C(N[C@@H]1CC[C@@]2(O)[C@H]3Cc4ccc(O)c5c4[C@@]2(CCN3CC2CC2)[C@H]1O5)c1ccc(Br)cc1`
94

Item `O=C(N[C@@H]1CC[C@@]2(O)[C@H]3Cc4ccc(O)c5c4[C@@]2(CCN3CC2CC2)[C@H]1O5)c1ccc(Cl)cc1` : provide EC50
88
